Tested System: recombinant human ATX beta isoform with N-terminal purification tag (human, UniProt Q13822 49-863)
Procedure Summary: ELISA, Fab-His captured by anti-Fd, 5 nM biotinylated human ATX beta

| Binder | Fab Binding |
| --- | --- |
| Fab F35 (VH H25, VL L29) (Fab, V domains shown, Soluble Fab-His) VH: QVQLVQSGAEVKKPGSSVKVSCKASGGTFSSYAISWVRQAPGQGLEWMGGIIPIFGTANYAQKFQGRVTITADESTSTAYMELSSLRSEDTAVYYCARDDLALGRLDYWGQGTLVTVSS VL: EIVLTQSPATLSLSPGERATLSCRASQSVAKFLAWYQQKPGQAPRLLIYKASNRATGIPARFSGSGSGTDFTLTISSLEPEDFAVYYCQQGHGWPRTFGQGTKVEIK | 2.1e+06 relative chemiluminescence units |
| Fab F2 (VH H2, VL L1) (Fab, V domains shown, Soluble Fab-His) VH: QVQLVQSGAEVKKPGSSVKVSCKASGGTFSSYAISWVRQAPGQGLEWMGGIIPIFGTANYAQKFQGRVTITADESTSTAYMELSSLRSEDTAVYYCARDDLPLGRLDYWGQGTLVTVSS VL: EIVLTQSPATLSLSPGERATLSCRASQSVRNFLAWYQQKPGQAPRLLIYDASNRATGIPARFSGSGSGTDFTLTISSLEPEDFAVYYCQQGYRAPITFGQGTKVEIK | 1.5e+06 relative chemiluminescence units |
| Fab F69 (VH H63, VL L63) (Fab, V domains shown, Soluble Fab-His) VH: QVQLVQSGAEVKKPGSSVKVSCKASGGTFSSYAISWVRQAPGQGLEWMGGIIPIFGTANYAQKFQGRVTITADESTSTAYMELSSLRSEDTAVYYCARDDDVNSLASYPLDYWGQGTLVTVSS VL: EIVLTQSPATLSLSPGERATLSCRASQSVSKALAWYQQKPGQAPRLLIYYASNRATGIPARFSGSGSGTDFTLTISSLEPEDFAVYYCQQYKNAPRTFGQGTKVEIK | 2e+06 relative chemiluminescence units |
